Origin of measurements: ChEMBL document CHEMBL3784971

Tested on: Candida albicans
Assay: Fungicidal activity against Candida albicans MTCC 3017 after 24 hrs by serial dilution method
Type: functional
Settings: MTCC 3017, 24 h
Entries annotated with measured MFC
Only the number, expressed in µg/mL, is required.

Previously resolved entries follow.
| COMPOUND | UNIT TEXT | MFC |
| --- | --- | --- |
| CCCCCC[N+](C)(CCCCCCCCCCC(=O)OC)CCCCCCCCCCC(=O)OC.[Cl-] | µg/mL | 15.6 |
| Clc1ccc(COC(Cn2ccnc2)c2ccc(Cl)cc2Cl)c(Cl)c1 (configuration not stated) | µg/mL | 7.8 |

Could you please provide reported MFC for CCCCCCCC[N+](C)(CCCCCCCC)CCCCCCCCCCC(=O)OC.[Cl-] ? Thanks!
31.2

Answer with the recorded MFC for the compound listed here: COC(=O)CCCCCCCCCC[N+](C)(C1CCCCC1)C1CCCCC1.[Cl-]
31.2

Provide measured MFC value, entry: CCCCCCNCCCCCCCCCCC(=O)OC
31.2

Quickly give me recorded MFC for CCCCCCCCCCCC[N+](C)(C)CCCCCCCCCCC(=O)OC.[Cl-]
62.5

Find the measured MFC of CCCCCC[N+](C)(C)CCCCCCCCCCC(=O)OC.[Cl-] and report it.
31.2
